Biological target: recombinant aminopeptidase A (UniProt P16406)
Experiment: Determination of the inhibition constants with respect to APA (GluβNa hydrolysis, microplate assay)
Details: recombinant APA; 200 μM GluβNa; pH 7.4 Tris-HCl; 4 mM CaCl2; 37° C.
Description: The compounds 5 were tested, in vitro, on recombinant aminopeptidase A in order to determine their affinity for APA. The assaying of APA activity is based on the protocol of Goldberg, adapted to the microplate assay scale (Pro Bind® 3915) (Chauvel et al., J. Med. Chem., 1994, 37, 1339-1346). In vitro, in the presence of calcium ions, APA hydrolyzes α-L-glutamyl-β-naphthylamide (gluβNa) to glutamate and β-naphthylamine (βNa). […] The absorbance is subsequently measured at 540 nm. […]
pKi: −log10 of the molar value.
Class true (1): pKi at least 6. Class false (0): pKi below 6.

See these solved cases before continuing.
{"Compound": "N[C@H](CCS(=O)(=O)O)[C@@H](S)CCc1ccccc1 [Compound 5e1]", "Assigned category": "false (0)"}
{"Compound": "CC(S)C(N)CCS(=O)(=O)O (stereo not shown) [Compound 5a]", "Assigned category": "false (0)"}
{"Compound": "NC(CCS(=O)(=O)O)C(S)CCc1ccc(Br)cc1 (stereo not shown) [Compound 5h]", "Assigned category": "true (1)"}
{"Compound": "N[C@@H](CCS(=O)(=O)O)[C@@H](S)CCc1ccccc1 [Compound 5e2]", "Assigned category": "true (1)"}
{"Compound": "NC(CCS(=O)(=O)O)C(S)CCc1ccccc1 (stereo not shown) [Compound 5e]", "Assigned category": "true (1)"}

Does N[C@H](CS)CCS(=O)(=O)O [EC 33, (S)-3-amino-4-mercaptobutylsulfonic acid, reference compound] have a reported pKi of at least 6?
true (1)

Reported pKi reaches at least 6 for COc1ccccc1CCC(S)C(N)CCS(=O)(=O)O (stereo not shown) [Compound 5g] ?
true (1)

Check this compound for pKi at or above 6: NC(CCS(=O)(=O)O)C(S)c1ccccc1 (stereo not shown) [Compound 5b]
false (0)

Please indicate if the recorded pKi for NC(CCS(=O)(=O)O)C(S)Cc1ccccc1 (stereo not shown) [Compound 5d] meets or exceeds 6.
true (1)
